Biological target: SpCas9 (Streptococcus pyogenes serotype M1, UniProt Q99ZW2)
Sequence (Q99ZW2 whole entry): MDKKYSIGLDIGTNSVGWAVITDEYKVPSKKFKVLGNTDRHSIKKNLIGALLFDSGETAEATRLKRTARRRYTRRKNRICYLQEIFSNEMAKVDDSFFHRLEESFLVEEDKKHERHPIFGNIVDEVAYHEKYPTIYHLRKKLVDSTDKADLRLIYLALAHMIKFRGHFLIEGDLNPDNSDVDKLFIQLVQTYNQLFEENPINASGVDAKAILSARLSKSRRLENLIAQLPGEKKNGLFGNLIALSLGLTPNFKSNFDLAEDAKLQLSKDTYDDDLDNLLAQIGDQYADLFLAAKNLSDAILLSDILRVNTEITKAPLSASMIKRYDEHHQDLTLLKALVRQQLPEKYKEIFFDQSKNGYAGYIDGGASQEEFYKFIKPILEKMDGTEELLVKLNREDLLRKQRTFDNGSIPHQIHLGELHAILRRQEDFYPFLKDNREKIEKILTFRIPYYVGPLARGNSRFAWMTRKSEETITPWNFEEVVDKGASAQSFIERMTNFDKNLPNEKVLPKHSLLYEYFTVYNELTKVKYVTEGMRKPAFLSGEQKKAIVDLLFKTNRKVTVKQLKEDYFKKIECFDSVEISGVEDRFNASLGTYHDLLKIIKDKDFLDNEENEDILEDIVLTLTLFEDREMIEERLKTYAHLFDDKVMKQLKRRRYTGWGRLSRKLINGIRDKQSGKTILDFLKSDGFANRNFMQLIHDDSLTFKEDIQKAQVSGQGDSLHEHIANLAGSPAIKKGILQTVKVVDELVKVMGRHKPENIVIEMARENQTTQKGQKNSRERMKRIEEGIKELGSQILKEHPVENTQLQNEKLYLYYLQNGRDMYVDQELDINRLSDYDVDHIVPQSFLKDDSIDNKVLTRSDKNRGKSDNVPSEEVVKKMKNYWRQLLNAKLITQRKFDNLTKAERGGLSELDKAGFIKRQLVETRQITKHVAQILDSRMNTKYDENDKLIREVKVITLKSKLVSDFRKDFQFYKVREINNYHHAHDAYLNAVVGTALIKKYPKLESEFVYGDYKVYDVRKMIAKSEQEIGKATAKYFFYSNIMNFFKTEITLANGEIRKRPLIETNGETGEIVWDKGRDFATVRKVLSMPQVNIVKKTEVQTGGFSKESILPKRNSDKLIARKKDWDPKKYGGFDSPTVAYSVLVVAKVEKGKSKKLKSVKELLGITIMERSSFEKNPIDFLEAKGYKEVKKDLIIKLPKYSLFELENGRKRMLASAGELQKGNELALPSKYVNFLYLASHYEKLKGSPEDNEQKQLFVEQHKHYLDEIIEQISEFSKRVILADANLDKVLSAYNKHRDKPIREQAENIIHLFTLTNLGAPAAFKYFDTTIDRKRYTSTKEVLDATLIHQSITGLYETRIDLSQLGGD
Assay: eGFP-disruption assay in U2OS.eGFP.PEST cells
Type: cell-based, S. pyogenes
Design: host or cells: U2OS.eGFP.PEST
Conditions: screen of structural analogs of BRD7087; 15 μM compound, 24 h, U2OS.eGFP.PEST cells
Reported Inhibition activity Rep 1 values for a set of compounds
No unit in the answer, please; the number alone is enough.

entry_smiles=O=C(C1CCCCC1)N1CC[C@@H]2[C@H](CO)Nc3ccc(Br)cc3[C@@H]21 observed=59.5
entry_smiles=CN(C)C(=O)c1cccc(-c2ccc3c(c2)[C@@H]2[C@@H](CCN2C(=O)c2ccc4c(c2)OCO4)[C@@H](CO)N3)c1 observed=61.0
entry_smiles=CN1c2ccc(C#Cc3cccnc3)cc2[C@H]2[C@H](CCN2C(=O)C2CCCCC2)[C@H]1CO observed=59.0
entry_smiles=N#Cc1ccc(-c2ccc3c(c2)[C@H]2[C@H](CCN2C(=O)Cc2ccccc2)[C@@H](CO)N3)cc1 observed=63.0
entry_smiles=CN1c2ccc(C#Cc3cccnc3)cc2[C@H]2[C@H](CCN2C(=O)C2CCCCC2)[C@@H]1CO observed=85.4
entry_smiles=COc1cccc(S(=O)(=O)N2CC[C@H]3[C@@H](CO)N(C)c4ccc(C#Cc5cccnc5)cc4[C@H]32)c1 observed=53.1

Reported Inhibition activity Rep 1 of `CN1c2ccc(C#Cc3cccnc3)cc2[C@@H]2[C@@H](CCN2C(=O)c2cccc(F)c2)[C@H]1CO` : 63.4

Reported Inhibition activity Rep 1 of `COc1ccccc1C#Cc1ccc2c(c1)[C@H]1[C@H](CCN1C(=O)CN1CCOCC1)[C@H](CO)N2` : 47.5

Reported Inhibition activity Rep 1 of `O=C(Cc1ccccc1)N1CC[C@@H]2[C@H](CO)Nc3ccc(-c4ccc(F)cc4)cc3[C@@H]21` : 71.6

Reported Inhibition activity Rep 1 of `CCC(=O)N1CC[C@@H]2[C@H]1c1cc(C#Cc3ccc(F)cc3)ccc1N[C@@H]2CO` : 49.0

Reported Inhibition activity Rep 1 of `O=C(C1CCCCC1)N1CC[C@@H]2[C@H]1c1cc(C#Cc3ccc(F)cc3)ccc1N[C@@H]2CO` : 47.8

Reported Inhibition activity Rep 1 of `Cc1ccc(S(=O)(=O)N2CC[C@@H]3[C@H](CO)Nc4ccc(-c5cccc(C(=O)N(C)C)c5)cc4[C@@H]32)cc1` : 46.5

Reported Inhibition activity Rep 1 of `O=S(=O)(c1cccc(F)c1)N1CC[C@@H]2[C@H](CO)Nc3ccc(C#Cc4ccccc4F)cc3[C@@H]21` : 50.9
